# assay_procedure: Metabolic stability in human liver microsome assessed as compound remaining at 500 uM incubated for 10 mins in presence of NADPH and G6PDH by LC-MS/MS analysis
# test_conditions: liver microsomes

{"columns": ["molecule", "remaining at 10 min, 500 µM / %"],
 "data": [
  ["O=C(C1CCCCC1)N1CON2CCc3ccccc3C2C1 (stereo unspecified)", 47.3]
]}
